system: genotype 1a H-77 replicon; assay: HCV genotype 1a replicon potency in GLuc-1 cells, bioluminescence; assay type: cell-based; settings: Hepatitis C virus; 72 hours, average of two or more independent experiments ± std. dev; read-out: Stable replicon cell lines EC50 (μM) Genotype 1a (Gluc-1)
measured-quantity: EC50 (µM)
Your answer is read as µM, so omit the unit and give the number.

{"smiles-structure": "Nc1nc(N2CCN(C(=O)COc3ccc(Cl)cc3)CC2)c2nc(C3CC3)[nH]c2n1", "EC50, µM": 0.274}

Check the records and state EC50 for CSc1nc2c(N3CCN(C(=O)COc4ccc(Cl)cc4)CC3)nc(N)nc2n1C
0.056

For the molecule Cc1nc2c(N3CCN(C(=O)COc4ccc(Cl)cc4)CC3)nc(N)nc2[nH]1 , give its reported EC50.
0.125

Read off the recorded EC50 for Nc1nc(N2CCN(C(=O)COc3ccc(Cl)cc3)CC2)c2nc(C3CC3)sc2n1
0.422

Report measured EC50; entry is Nc1nc(N2CCN(C(=O)COc3ccccc3)CC2)c2nc(-c3ccc(F)cc3)[nH]c2n1
0.059

###

test system: poliovirus (PV type 2); test: microbe, parasite or virus in culture; format: cell-based; settings: Enterovirus C, HeLa, read-out: PV-2 EC50
measured-quantity: EC50

{"smiles-structure": "O=C(O)c1nc(N2CCN(C(=O)COc3ccc(Cl)cc3)CC2)c2cc(-c3ccc(F)cc3)sc2n1", "target-of-assay": "poliovirus (PV type 2)", "result": "≥ 50 µg/mL"}
{"smiles-structure": "COc1ccc(OCC(=O)N2CCN(c3ncnc4sc(CCc5ccc(F)cc5)nc34)CC2)cc1", "target-of-assay": "poliovirus (PV type 2)", "result": "< 0.023 µg/mL"}
{"smiles-structure": "COCc1nc2c(N3CCN(C(=O)COc4ccc(Cl)cc4)CC3)nc(N)nc2o1", "target-of-assay": "poliovirus (PV type 2)", "result": "9.42 µg/mL"}

Provide one value: measured EC50 of Nc1nc(N2CCN(C(=O)COc3ccc(Cl)cc3)CC2)c2nc(-c3ccc(F)cc3)sc2n1
< 0.023 µg/mL

###

experiment: Cytostatic/cytotoxic effect in Hela Rh cells (rhinovirus methodology, MTS); conditions: human, CC50, Hela Rh cells
The reader will find reported CC50 values listed item by item below.

Here's what some known entries look like.
{"smiles-structure": "COc1ccc(OCC(=O)N2CCN(c3nc(N)nc4sc(CCc5ccc(OC)c(OC)c5)nc34)CC2)cc1", "CC50": "> 50 µg/mL"}
{"smiles-structure": "Nc1nc(N2CCN(C(=O)COc3ccc(Cl)cc3)CC2)c2nc(CCCCc3ccc(F)cc3)sc2n1", "CC50": "> 50 µg/mL"}
{"smiles-structure": "COc1cccc(CCc2nc3c(N4CCN(C(=O)COc5ccc(Cl)cc5)CC4)nc(N)nc3s2)c1", "CC50": "> 50 µg/mL"}
{"smiles-structure": "Nc1nc(N2CCN(C(=O)COc3ccc(O)cc3)CC2)c2nc(CCc3ccc(F)cc3)sc2n1", "CC50": "> 50 µg/mL"}
{"smiles-structure": "COc1ccc(OCC(=O)N2CCN(c3nc(N)nc4sc(-c5ccc(C)cc5)nc34)CC2)cc1", "CC50": "> 50 µg/mL"}
{"smiles-structure": "Nc1nc(N2CCN(C(=O)COc3ccc(Br)cc3)CC2)c2nc(-c3ccc(F)cc3)sc2n1", "CC50": "> 50 µg/mL"}

Attention now turns to another entry.
Look up and state reported CC50 for Nc1nc(N2CCN(C(=O)COc3ccc(Cl)cc3)CC2)c2nc(CCCc3ccc(F)cc3)sc2n1
> 50 µg/mL
